Target: hMAO-B (Homo sapiens)
Sequence (P27338 1-520): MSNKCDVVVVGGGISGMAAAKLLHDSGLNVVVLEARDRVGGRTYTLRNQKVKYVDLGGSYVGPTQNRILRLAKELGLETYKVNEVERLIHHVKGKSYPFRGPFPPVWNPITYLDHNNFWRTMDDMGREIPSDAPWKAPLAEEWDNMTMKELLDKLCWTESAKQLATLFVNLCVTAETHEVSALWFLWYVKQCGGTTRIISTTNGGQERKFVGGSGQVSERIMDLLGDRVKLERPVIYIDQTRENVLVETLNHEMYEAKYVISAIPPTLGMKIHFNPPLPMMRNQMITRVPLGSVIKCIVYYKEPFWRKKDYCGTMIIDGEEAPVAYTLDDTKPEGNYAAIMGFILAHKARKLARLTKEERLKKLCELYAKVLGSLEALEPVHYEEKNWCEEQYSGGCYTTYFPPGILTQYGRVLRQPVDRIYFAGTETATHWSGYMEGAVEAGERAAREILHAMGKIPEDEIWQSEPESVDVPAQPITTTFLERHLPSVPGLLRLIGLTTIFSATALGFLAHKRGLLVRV
Endpoint: IC50
Respond with a number, then the unit of measure.

Input: What value of measured IC50 is listed for O=C(/C=C/c1ccccc1)c1cccs1 [Compound 2] ?
Output: 10.6 µM
